Would you mind telling me the reported growth of each entry?
# Tested on: HCT-116 colon
# Protocol Text: NCI-60 one-dose screen, 48 h (100 = growth as untreated, 0 = no growth, -100 = all killed)
# Condition Notes: 10 µM unless noted
The panel holds about 83,000 compounds, 20% with a hit somewhere; the sample as a whole holds those more often.
Numbers only, in %.

Missing value: growth, HCT-116 colon, entry CCN(CC)CCO/N=C1\CC(c2ccc(OC)c(OC)c2)Oc2ccccc21 (stereo not given) . Fill in?
84.1

Missing value: growth, HCT-116 colon, entry O=[N+]([O-])c1ccc(NC(c2ccccc2)c2ccc3cccnc3c2O)cc1 (stereo not given) . Fill in?
28

Missing value: growth, HCT-116 colon, entry OCc1ccccc1F . Fill in?
58.2

Missing value: growth, HCT-116 colon, entry O=C1c2ccccc2CN1c1ccccc1 . Fill in?
91.7

Missing value: growth, HCT-116 colon, entry COc1ccc(S(=O)(=O)c2ccc(F)cc2)cc1 . Fill in?
102

Give growth for each listed item.
1. S=c1nn[nH]n1C1CCCCC1
2. Cc1ccc([N+](=O)[O-])cc1Br
3. CSc1nc(N)c(N)c(N)n1
4. COC(=O)c1ccccc1Cl
5. COC(=O)C(Cc1cn(C(C)=O)c2ccccc12)P(=O)(OC)OC (stereo not given)
6. CCc1ccccc1-n1[nH]c(C)c(C=N)c1=O
7. COCCCNC1=C(C#N)C(=O)NC(c2cccs2)S1 (stereo not given)
8. O=C1C=CC(n2cc(F)c(=O)[nH]c2=O)O1 (stereo not given)

101
90.8
86.5
100
96.4
120
103
40

Give growth for each listed item.
1. O=COCCCc1ccccc1
2. CC(C)(C)OC(=O)c1ccc(NCc2cc(O)ccc2O)cc1
3. CC1(C)CC(=O)NC1=O
4. Nc1ccc2ccc(NS(=O)(=O)N3CCCCC3)cc2c1

96.1
36.2
96.5
9.95
